Quick reference: %Inh of the listed items.
System: NIK;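 note: KINOMEscan kinase panel screen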
Construct: gene MAP3K14
EXPERIMENTAL CONTEXT: concentration: 1 μM, replicates: in singlicate; n = 1
PROPERTY MEASURED: %Inh

smiles_input=COc1cc2ncn(-c3cc(OCCCc4ccccc4)c(C(N)=O)s3)c2cc1OC system_under_test=NIK obs_value=0%
smiles_input=CCC(=O)c1c(-c2ccccc2)c2cc(Cl)ccc2c(=O)n1Cc1cc(S(C)(=O)=O)n(CC(N)=O)n1 system_under_test=NIK obs_value=0%
smiles_input=CN1C(=O)C(Nc2cc(Cl)c(O)c(Cl)c2)=C(c2ccc(Cl)cc2)C1=O system_under_test=NIK obs_value=30%
smiles_input=CN1C(=O)C(Nc2ccccc2)=C(c2ccccc2)C1=O system_under_test=NIK obs_value=32%
smiles_input=CN(C)c1cc(-c2ccc3c(N)n[nH]c3c2)nc(N)n1 system_under_test=NIK obs_value=0%

The values you see were collected from paper PMC5540273.
